Quick reference: Representation of phage in tumors (fold G7 control phage), PC3 of the listed items.
- System: PC3 prostate carcinoma xenografts
- recorded conditions: i.v. equimolar mix, 2 h circulation
- Experimental: In vivo play-off was used to evaluate systemic homing of peptide phage to xenograft tumor models. […] The amplified phage peptides were pooled in equimolar quantities, and injected intravenously (final 1×10^10 pfu in 200 μl PBS) in tumor-bearing mice for two hour circulation, after which mice were anesthetized with 2.5% avertin and intracardially perfused with DMEM intracardially. […]
readout label: Representation of phage in tumors (fold G7 control phage), PC3 (fold)

INSERT INTO assay_data (substance, unit, endpoint_result) VALUES
  ('CAGRGRLVRC', 'fold', 0.4),
  ('RGRLVRAK', 'fold', 3.0),
  ('AGRGRLVR [PL3]', 'fold', 3.9),
  ('GRLTRVR', 'fold', 0.9),
  ('CRGVLRRAKLAAALE', 'fold', 0.9),
  ('CSRRGILRAKPAAALE', 'fold', 1.2),
  ('RRLVRVA', 'fold', 0.9),
  ('GGGGGGG [reference compound]', 'fold', 1.0),
  ('AGRGRLVRAKLAAALE', 'fold', 0.3),
  ('RGRLVRA', 'fold', 1.8),
  ('AGVGRLRRAKLAAALE', 'fold', 1.4),
  ('VGRVRFSRKLAAALE', 'fold', 1.2),
  ('AVRGRLRVAKLAAALE', 'fold', 1.0);
